- Tested on: Sam68 (KHDRBS1)
- test_method_notes: Sam68 small-molecule binders, primary screen, biochemical, small-molecule microarray, 635 nm fluorescence (AID 1125);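 note: score merges 667 nm channel intensity with signal to noise over triplicate slides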
- applied_conditions: small-molecule microarray binding, higher = more signal
property_measured: composite z-score

* COCC(=C=CC[C@@H](O)c1cccc(OCCO)c1)C[C@@H](O)c1ccccn1 | 0.338
* CCS[C@H]1[C@@H](C(=O)O)[C@H](c2ccc(C)cc2)N(S(=O)(=O)c2ccc(C)cc2)[C@@H]1CC | 1.32
* [N-]=[N+]=NCc1ccccc1C[C@]1(C(N)=O)COC(c2ccc(OCCCO)cc2)=N1 | 0.48
* CC(C)C[C@@H]1NC(=O)[C@@H]2C[C@H](C(=O)NCc3ccc(F)cc3)[C@H](c3cccc(OCCO)c3)N2C1=O | 0.72
* COC(=O)[C@@]1(Cc2ccc(OC)cc2)[C@H]2c3cc(C(=O)N(C)C)n(C)c3C[C@H]2CN1C(=O)c1ccccc1 | 1.31
* C=C(CCCC)C(=O)CC[C@@H](OC(=O)c1ccccc1-c1ccccc1C(=O)O)c1ccc(OCCO)cc1 | 0.684
* Cc1ccc([C@@H]2C[C@@H](Sc3ccccc3)[C@H](C(=O)O)CN2S(=O)(=O)c2ccc(C)cc2)cc1 | 1.29
* O[C@@H](Cc1ccccc1)[C@H]1C2C=CCCC=C2CN1Cc1cccc(Cl)c1 (stereo partly specified) | 1.31
* C=C(C)[C@@H]1CC=C(C(O)C2C=CC3C(=O)N(c4ccccc4)C(=O)C3N2Nc2ccccc2)CC1 (stereo partly specified) | 1.3
* [N-]=[N+]=Nc1ccccc1[C@H]1OC(c2ccc(OCCCO)cc2)=N[C@@]1(CCS(=O)(=O)c1ccccc1)C(N)=O | 1.22
* COc1ccc(-c2cc3c(c(-c4ccc(Oc5ccccc5)cc4)n2)[Si](C(C)C)(C(C)C)OC3)cn1 | -0.0667
* CC(CO)N1C(=O)[C@@H]2C3C(=O)OCCC/C=C\[C@H]3OC23C=CCN(C(C)(C)C)C(=O)[C@@H]13 (stereo partly specified) | -0.0677
* C=C(C(=O)CC[C@@H](OC(=O)c1cccnc1)c1ccccc1OCCO)C(C)C | 0.489
* C=C(COC)/C(=C/C[C@@H](OC(=O)c1ccncc1)c1ccc(CO)o1)c1cc(C(=O)OC)ccc1OC | 1.31
* COc1cc2c(cc1OC)CN(C(=O)[C@@H]1[C@H]3C(=O)O[C@H](c4ccccc4)[C@H](c4ccccc4)N3[C@H](c3ccc(O)cc3)[C@@]13C(=O)Nc1ccccc13)CC2 | 0.751
* O=C1C2C=CC(C(O)CCc3ccccc3)N(Nc3ccccc3F)C2C(=O)N1c1ccccc1 (stereo unspecified) | 1.22

###

- test_method_notes: small-molecule binders of probe aLefty1, primary screen, biochemical, small-molecule microarray, 635/667 nm fluorescence (AID 1153);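 note: score merges spot fluorescence with signal-to-noise ratio from the scanned slide images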
- applied_conditions: higher = more signal
Give Yes when the value for composite z-score is at least 0.2. Give No when it is less.

• COc1cc2c(cc1O)C(c1cccs1)N(C)CC2 (stereo not drawn) = No
• O=C(c1ccccc1)N1C(=O)[C@@]2(Cc3ccccc31)N=C(c1ccc(OCCCO)cc1)O[C@H]2c1ccccc1 = Yes
• C=CCN1C(=O)[C@]2(O[C@H](CCn3cc([C@H](O)c4ccccc4)nn3)[C@@H]([Si](C)(C)c3ccc(OC)cc3)[C@@H]2C)c2ccccc21 = No
• CC(C)NC(=O)[C@@]1(C)c2ccccc2C(=O)N(Cc2cc(C(F)(F)F)cc(C(F)(F)F)c2)[C@H]1c1ccc(CO)cc1 = No
• CN(C)C(=O)[C@@]1(CCS(=O)(=O)c2ccccc2)COC(c2ccc(OCCCO)cc2)=N1 = No
• COc1cc(Br)cc(C(O)C2C=CC3C(=O)N(C)C(=O)C3N2N2CCCCC2)c1OC (stereo not drawn) = No
• COC(=O)C[C@H]1O[C@]2(C(=O)N(C)c3ccccc32)[C@@H](C)[C@@H]1[Si](C)(C)F = No
• O=C1O[C@@H](c2ccccc2)[C@@H](c2ccccc2)N2[C@@H](c3ccccc3OCCO)[C@]3(C(=O)Nc4ccc(C#CC5=CCCCC5)cc43)[C@@H](C(=O)N3CCCCCCC3)[C@H]12 = Yes
